src = patent US5518735A

# key: entry, value: Ki
ASSAY TARGET: UniProt:P00735
ASSAY SUMMARY: Inhibition of thrombin (dissociation constant Ki)
Type: biochemical
Where a name gives a salt, the structure may show the parent alone.

{"columns": ["MOLECULE", "Ki, nM"],
 "data": [
  ["CC1CCN(C(=O)C(Cc2cccc(C(=N)NO)c2)NS(=O)(=O)c2ccc3ccccc3c2)CC1 (racemic) [Compound 187, hydroiodide]", 2800],
  ["N=C(NO)c1cccc(CC(NS(=O)(=O)c2ccc3ccccc3c2)C(=O)N2CCCCC2C(=O)O)c1 (racemic) [Compound 188, hydroiodide]", 330000],
  ["N=C(N)c1cccc(CC(NS(=O)(=O)c2ccc3ccccc3c2)C(=O)N2CC3CCCCC3CC2C(=O)O)c1 (racemic) [Compound 151, hydrochloride]", 120],
  ["N=C(N)c1cccc(C[C@H](NS(=O)(=O)c2ccc3ccccc3c2)C(=O)N2CCC[C@@H]2C(=O)O)c1 [Compound 123, hydrochloride]", 680]
]}
